Organism: Bos taurus
Test: Inhibition of [3H]ketanserin binding to 5-hydroxytryptamine 2 receptor of bovine frontal cortex at 10e-7 M
Assay type: tissue-based
Below: a set of entries, each annotated with reported inhibition.

{"compound": "O=C(NCCN1CCN(C2CCCCc3ccccc32)CC1)c1ccc(F)cc1 (centres undefined)", "inhibition / %": 23}
{"compound": "O=C(NCCN1CCN(C2CCCc3ccccc32)CC1)c1ccc(Cl)cc1 (stereo in doubt; 34)", "inhibition / %": 6}
{"compound": "Cc1ccc(C(=O)NCCN2CCN(C3CCCc4ccccc43)CC2)cc1 (centres undefined)", "inhibition / %": 6}
{"compound": "Cc1ccc(C(=O)NCCN2CCN(C3CCCCc4ccccc43)CC2)cc1 (centres undefined)", "inhibition / %": 14}
{"compound": "COc1ccc(C(=O)NCCN2CCN(C3CCCc4ccccc43)CC2)cc1 (centres undefined)", "inhibition / %": 28}
{"compound": "O=C(NCCCN1CCN(C2CCCc3ccccc32)CC1)c1ccc(F)cc1 (centres undefined)", "inhibition / %": 19}
{"compound": "O=C(NCCCN1CCN(C2CCCc3ccccc32)CC1)c1ccccc1 (centres undefined)", "inhibition / %": 17}
{"compound": "O=C(NCCN1CCN(C2CCCc3ccccc32)CC1)c1ccc(F)cc1 (stereo in doubt; 33)", "inhibition / %": 17}
{"compound": "O=C(NCCN1CCN(C2CCc3ccccc32)CC1)c1ccc(F)cc1 (centres undefined)", "inhibition / %": 0}
{"compound": "COc1ccc(C(=O)NCCN2CCN(C3CCc4ccccc43)CC2)cc1 (centres undefined)", "inhibition / %": 17}
{"compound": "O=C(NCCN1CCN(C2CCCCc3ccccc32)CC1)c1ccccc1 (centres undefined)", "inhibition / %": 37}
{"compound": "O=C(CCCN1CCN(C2CCCc3ccccc32)CC1)c1ccc(F)cc1 (centres undefined)", "inhibition / %": 20}
{"compound": "COc1ccc(C(=O)NCCN2CCN(C3CCCCc4ccccc43)CC2)cc1 (centres undefined)", "inhibition / %": 10}
{"compound": "O=C(NCCN1CCN(C2CCCc3ccccc32)CC1)c1ccccc1 (stereo in doubt; 32)", "inhibition / %": 0}

====

Assay: Inhibition of [3H]ketanserin binding to 5-hydroxytryptamine 2 receptor of bovine frontal cortex
Assay type: tissue-based, Bos taurus
pKi: −log10 of the molar value.

{"compound": "O=C(NCCN1CCN(C2CCCc3ccccc32)CC1)c1ccc(Cl)cc1 (stereo in doubt; (-)-34)", "pKi": 5.57}
{"compound": "O=C(NCCN1CCN(C2CCCc3ccccc32)CC1)c1ccc(Cl)cc1 (stereo in doubt; (+)-34)", "pKi": 5.42}
{"compound": "O=C(NCCN1CCN(C2CCCc3ccccc32)CC1)c1ccc(Cl)cc1 (stereo in doubt; 34)", "pKi": 6.00}

====

Molecular target: UniProt:P20288
Sequence (P20288 whole entry): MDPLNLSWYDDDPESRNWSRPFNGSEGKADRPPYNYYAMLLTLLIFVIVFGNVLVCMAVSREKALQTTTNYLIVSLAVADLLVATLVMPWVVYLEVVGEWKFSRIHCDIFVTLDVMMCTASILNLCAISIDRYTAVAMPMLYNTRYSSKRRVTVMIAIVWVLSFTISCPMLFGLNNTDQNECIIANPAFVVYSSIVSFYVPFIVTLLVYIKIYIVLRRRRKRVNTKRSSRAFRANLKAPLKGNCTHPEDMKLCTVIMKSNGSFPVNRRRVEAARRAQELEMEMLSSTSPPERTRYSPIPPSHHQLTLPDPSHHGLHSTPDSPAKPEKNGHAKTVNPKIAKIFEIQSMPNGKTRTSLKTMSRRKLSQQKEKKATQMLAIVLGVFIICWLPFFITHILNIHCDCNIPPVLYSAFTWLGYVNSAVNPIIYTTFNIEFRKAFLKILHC
Assay: Inhibition of [3H]raclopride binding to Dopamine receptor D2 of bovine striatum
pKi: −log10 of the molar value.
# pKi annotations

{"compound": "O=C(NCCN1CCN(C2CCCc3ccccc32)CC1)c1ccc(F)cc1 (single isomer, unassigned; (+))", "pKi": 6.13}
{"compound": "O=C(CCCN1CCN(C2CCCc3ccccc32)CC1)c1ccc(F)cc1 (stereo unspecified)", "pKi": 6.96}
{"compound": "O=C(NCCN1CCN(C2CCCc3ccccc32)CC1)c1ccc(F)cc1 (stereo in doubt; 33)", "pKi": 7.15}
{"compound": "O=C(NCCN1CCN(C2CCCc3ccccc32)CC1)c1ccccc1 (single isomer, unassigned; (-))", "pKi": 6.89}
{"compound": "O=C(NCCN1CCN(C2CCCc3ccccc32)CC1)c1ccccc1 (stereo in doubt; 32)", "pKi": 6.96}
{"compound": "O=C(NCCN1CCN(C2CCCc3ccccc32)CC1)c1ccc(Cl)cc1 (stereo in doubt; 34)", "pKi": 6.92}

====

Experiment: Displacement of [3H]-prazosin from Alpha-1 adrenergic receptor of bovine frontal cortex
Assay type: tissue-based, Bos taurus
pKi: −log10 of the molar value.
Recorded measurements of pKi, one per entry
assayEndpoint: pKi

{"molecule": "O=C(NCCN1CCN(C2CCCc3ccccc32)CC1)c1ccc(F)cc1 (single isomer, unassigned; (+))", "number": 6.15}
{"molecule": "O=C(NCCN1CCN(C2CCCc3ccccc32)CC1)c1ccc(F)cc1 (stereo in doubt; 33)", "number": 7.10}
{"molecule": "O=C(NCCN1CCN(C2CCCc3ccccc32)CC1)c1ccccc1 (stereo in doubt; 32)", "number": 6.82}
{"molecule": "CCCN(CCC)C1CCc2cccc(O)c2C1 (stereo not given)", "number": 5.02}
{"molecule": "O=C(NCCN1CCN(C2CCCc3ccccc32)CC1)c1ccccc1 (single isomer, unassigned; (-))", "number": 6.72}
{"molecule": "O=C(NCCN1CCN(C2CCCc3ccccc32)CC1)c1ccc(Cl)cc1 (stereo in doubt; 34)", "number": 6.39}
{"molecule": "O=C1CC2(CCCC2)CC(=O)N1CCCCN1CCN(c2ncccn2)CC1", "number": 5.88}
{"molecule": "O=C(NCCN1CCN(C2CCCc3ccccc32)CC1)c1ccc(F)cc1 (single isomer, unassigned; (-))", "number": 6.91}
{"molecule": "O=C(NCCN1CCN(C2CCCc3ccccc32)CC1)c1ccc(Cl)cc1 (stereo in doubt; (+)-34)", "number": 5.08}
{"molecule": "O=C(NCCN1CCN(C2CCCc3ccccc32)CC1)c1ccc(Cl)cc1 (stereo in doubt; (-)-34)", "number": 6.35}

====

compounds and their reported LLR msad
System: Rattus norvegicus
Assay: in vivo behavioral test for Lower Lip Retraction(LLR) (msad=minimum significant active dose) in rats
Format: functional
assayEndpoint: LLR msad

{"compound": "O=C(CCCN1CCN(C2CCCc3ccccc32)CC1)c1ccc(F)cc1 (stereo not given)", "result": ">64 mg/kg"}
{"compound": "O=C(NCCN1CCN(C2CCCc3ccccc32)CC1)c1ccc(F)cc1 (single isomer, unassigned; (-))", "result": "2.25 mg/kg"}
{"compound": "O=C(NCCN1CCN(C2CCCc3ccccc32)CC1)c1ccccc1 (single isomer, unassigned; (-))", "result": "2.75 mg/kg"}
{"compound": "O=C(NCCN1CCN(C2CCCc3ccccc32)CC1)c1ccc(Cl)cc1 (stereo in doubt; (-)-34)", "result": "2.5 mg/kg"}
{"compound": "CCCN(CCC)C1CCc2cccc(O)c2C1 (stereo not given)", "result": "2.2 mg/kg"}

====

This section lists Ki readings for 5-hydroxytryptamine receptor 2A (Bos taurus).

{"compound": "O=C1CC2(CCCC2)CC(=O)N1CCCCN1CCN(c2ncccn2)CC1 [BUSPIRONE]", "readingQualifier": "=", "Ki / nM": 178}
{"compound": "CCCN(CCC)C1CCc2cccc(O)c2C1 (configuration not stated) [8-OH-DPAT]", "readingQualifier": ">", "Ki / nM": 1000}

====

pKi: −log10 of the molar value.
// pKi collected for Histamine H1 receptor (Rattus norvegicus)

{"molecule": "O=C(CCCN1CCN(C2CCCc3ccccc32)CC1)c1ccc(F)cc1 (stereo not given)", "pKi": 7.38}
{"molecule": "O=C(NCCN1CCN(C2CCCc3ccccc32)CC1)c1ccccc1 (stereo in doubt; 32)", "pKi": 7.52}
{"molecule": "O=C(NCCN1CCN(C2CCCc3ccccc32)CC1)c1ccc(F)cc1 (single isomer, unassigned; (-))", "pKi": 7.24}
{"molecule": "O=C(NCCN1CCN(C2CCCc3ccccc32)CC1)c1ccccc1 (single isomer, unassigned; (-))", "pKi": 7.15}
{"molecule": "O=C(NCCN1CCN(C2CCCc3ccccc32)CC1)c1ccc(F)cc1 (stereo in doubt; 33)", "pKi": 6.85}

====

Species on record: Bos taurus
Test: Inhibition of [3H]prazosin binding to Alpha-1 adrenergic receptor of calf frontal cortex at 10e-7 M
Type: tissue-based
The entries below come with measured inhibition values attached.
assayEndpoint: inhibition (%)

{"compound": "COc1ccc(C(=O)NCCN2CCN(C3CCCCc4ccccc43)CC2)cc1 (centres undefined)", "measurementUnits": "%", "number": 0}
{"compound": "Cc1ccc(C(=O)NCCN2CCN(C3CCCCc4ccccc43)CC2)cc1 (centres undefined)", "measurementUnits": "%", "number": 0}
{"compound": "Cc1ccc(C(=O)NCCN2CCN(C3CCCc4ccccc43)CC2)cc1 (centres undefined)", "measurementUnits": "%", "number": 0}
{"compound": "O=C(CCCN1CCN(C2CCCc3ccccc32)CC1)c1ccc(F)cc1 (centres undefined)", "measurementUnits": "%", "number": 1}
{"compound": "O=C(NCCN1CCN(C2CCCCc3ccccc32)CC1)c1ccc(F)cc1 (centres undefined)", "measurementUnits": "%", "number": 0}
{"compound": "COc1ccc(C(=O)NCCN2CCN(C3CCc4ccccc43)CC2)cc1 (centres undefined)", "measurementUnits": "%", "number": 6}
{"compound": "O=C(NCCN1CCN(C2CCCCc3ccccc32)CC1)c1ccccc1 (centres undefined)", "measurementUnits": "%", "number": 0}
{"compound": "O=C(NCCN1CCN(C2CCc3ccccc32)CC1)c1ccc(F)cc1 (centres undefined)", "measurementUnits": "%", "number": 36}
{"compound": "O=C(NCCN1CCN(C2CCCc3ccccc32)CC1)c1ccccc1 (stereo in doubt; 32)", "measurementUnits": "%", "number": 4}
{"compound": "COc1ccc(C(=O)NCCN2CCN(C3CCCc4ccccc43)CC2)cc1 (centres undefined)", "measurementUnits": "%", "number": 0}
{"compound": "O=C(NCCCN1CCN(C2CCCc3ccccc32)CC1)c1ccc(F)cc1 (centres undefined)", "measurementUnits": "%", "number": 6}
{"compound": "O=C(NCCN1CCN(C2CCCc3ccccc32)CC1)c1ccc(Cl)cc1 (stereo in doubt; 34)", "measurementUnits": "%", "number": 23}
{"compound": "O=C(NCCN1CCN(C2CCCc3ccccc32)CC1)c1ccc(F)cc1 (stereo in doubt; 33)", "measurementUnits": "%", "number": 22}
{"compound": "O=C(NCCCN1CCN(C2CCCc3ccccc32)CC1)c1ccccc1 (centres undefined)", "measurementUnits": "%", "number": 11}
